Documented log10 INH across a set of molecules
# System: Bacillus subtilis
# measurement notes: Inhibition of cell division in penicillin-susceptible Bacillus subtilis ATCC 9372 assessed as lowest concentration required to filamentation after 5 hrs by phase-contrast light microscopy analysis
# Type: functional
Values are log10 of INH in µg/mL.

# annotated cases, reported log10 INH shown
# smiles notation, readout number
records = [
    ("NC(=O)c1cccc(OCCCOc2ccc([N+](=O)[O-])cc2)c1", 0.60),
    ("NC(=O)c1cccc(OCCCCCl)c1", 1.20),
    ("NC(=O)c1cccc(OCCCCOc2ccc([N+](=O)[O-])cc2)c1", 1.51),
]

Query block: Give its log10 INH value. Item: "NC(=O)c1cccc(OCCCCCCCl)c1"
Result block: 0.60

Query block: Give its log10 INH value. Item: "COc1ccc(OCCCCOc2cccc(C(N)=O)c2)cc1"
Result block: 1.51

Query block: Give its log10 INH value. Item: "NC(=O)c1cccc(OCCCCBr)c1"
Result block: 0.90

Query block: Give its log10 INH value. Item: "CCCOCCCCCOc1cccc(C(N)=O)c1"
Result block: 0.90

Query block: Give its log10 INH value. Item: "NC(=O)c1cccc(OCCCCCBr)c1"
Result block: 1.51

Query block: Give its log10 INH value. Item: "NC(=O)c1cccc(OCCCOc2ccc(Cl)cc2)c1"
Result block: 0.60

Query block: Give its log10 INH value. Item: "NC(=O)c1cccc(O)c1"
Result block: 3.61

Query block: Give its log10 INH value. Item: "NC(=O)c1cccc(OCCSc2nc3ccccc3s2)c1"
Result block: 1.20

Query block: Give its log10 INH value. Item: "CCCCOCCCCCOc1cccc(C(N)=O)c1"
Result block: 0.90

Query block: Give its log10 INH value. Item: "NC(=O)c1cccc(OCCCOc2ccccc2)c1"
Result block: 0.90

###

# Test system: Bacillus subtilis
# measurement notes: Inhibition of cell division in penicillin-susceptible Bacillus subtilis ATCC 9372 assessed as lowest concentration required to filamentation after 5 hrs by phase-contrast light microscopy analysis
# Type: functional
Documented INH across a set of compounds
A number alone suffices; assume µg/mL.

# smiles notation, measurement unit, readout number
measured = [
    ("NC(=O)c1cccc(OCCCBr)c1", "µg/mL", 128),
    ("NC(=O)c1cccc(OCCCSc2nc3ccccc3s2)c1", "µg/mL", 512),
    ("NC(=O)c1cccc(OCCCCCCBr)c1", "µg/mL", 16),
]

Query block: Give its INH value. Item: "NC(=O)c1cccc(OCCCCn2ccnc2)c1"
Result block: 128

###

# Tested on: Staphylococcus aureus
# measurement notes: Antibacterial activity against penicillin-resistant Staphylococcus aureus clinical isolate after 24 hrs by broth microdilution method
# Assay type: functional
Documented MIC across a set of molecules

# annotated cases, reported MIC shown
# smiles notation, result
rows = [
    ("NC(=O)c1cccc(OCCCCn2cncn2)c1", "> 128 µg/mL"),
    ("NC(=O)c1cccc(OCCCOc2ccc(Cl)cc2)c1", "> 128 µg/mL"),
    ("NC(=O)c1cccc(OCCCCCCl)c1", "32 µg/mL"),
]

Query block: Give its MIC value. Item: "COc1ccc(OCCCCOc2cccc(C(N)=O)c2)cc1"
Result block: > 128 µg/mL

Query block: Give its MIC value. Item: "NC(=O)c1cccc(OCCCCOc2ccc(Cl)cc2)c1"
Result block: > 128 µg/mL

Query block: Give its MIC value. Item: "CCCOCCCCCOc1cccc(C(N)=O)c1"
Result block: 32 µg/mL

Query block: Give its MIC value. Item: "NC(=O)c1cccc(OCCCCSc2nc3ccccc3s2)c1"
Result block: > 128 µg/mL

Query block: Give its MIC value. Item: "NC(=O)c1cccc(OCCCCCBr)c1"
Result block: 32 µg/mL

Query block: Give its MIC value. Item: "NC(=O)c1cccc(OCCSc2nc3ccccc3s2)c1"
Result block: > 128 µg/mL

Query block: Give its MIC value. Item: "NC(=O)c1cccc(OCCCCBr)c1"
Result block: 8 µg/mL

Query block: Give its MIC value. Item: "NC(=O)c1cccc(OCCCOc2ccc([N+](=O)[O-])cc2)c1"
Result block: > 128 µg/mL

Query block: Give its MIC value. Item: "NC(=O)c1cccc(OCCCOc2ccccc2)c1"
Result block: > 128 µg/mL

Query block: Give its MIC value. Item: "NC(=O)c1cccc(OCCCn2cncn2)c1"
Result block: > 128 µg/mL

###

Documented log10 INH across a set of compounds
# Test system: Staphylococcus aureus
# measurement notes: Inhibition of cell division in penicillin-susceptible Staphylococcus aureus ATCC 25923 assessed as lowest concentration required to ballooning after 5 hrs by phase-contrast light microscopy analysis
# Format: functional
Values are log10 of INH in µg/mL.

# smiles notation, log10 INH
records = [
    ("NC(=O)c1cccc(OCCCCl)c1", 1.81),
]

Query block: Give its log10 INH value. Item: "NC(=O)c1cccc(O)c1"
Result block: 3.61

Query block: Give its log10 INH value. Item: "CCCOCCCCCOc1cccc(C(N)=O)c1"
Result block: 1.51

Query block: Give its log10 INH value. Item: "NC(=O)c1cccc(OCCCCOc2ccc(Cl)cc2)c1"
Result block: 2.41

Query block: Give its log10 INH value. Item: "NC(=O)c1cccc(OCCCCn2ccnc2)c1"
Result block: 2.11

Query block: Give its log10 INH value. Item: "NC(=O)c1cccc(OCCCCn2cncn2)c1"
Result block: 3.01

Query block: Give its log10 INH value. Item: "NC(=O)c1cccc(OCCCCBr)c1"
Result block: 0.90

Query block: Give its log10 INH value. Item: "NC(=O)c1cccc(OCCCCCCCl)c1"
Result block: 1.51

Query block: Give its log10 INH value. Item: "NC(=O)c1cccc(OCCCSc2nc3ccccc3[nH]2)c1"
Result block: 2.71

Query block: Give its log10 INH value. Item: "NC(=O)c1cccc(OCCCSc2nc3ccccc3s2)c1"
Result block: 2.41

Query block: Give its log10 INH value. Item: "NC(=O)c1cccc(OCCCBr)c1"
Result block: 1.51

Query block: Give its log10 INH value. Item: "NC(=O)c1cccc(OCCCOc2ccccc2)c1"
Result block: 3.01

Query block: Give its log10 INH value. Item: "NC(=O)c1cccc(OCCCOc2ccc([N+](=O)[O-])cc2)c1"
Result block: 2.71

Query block: Give its log10 INH value. Item: "NC(=O)c1cccc(OCCCCCl)c1"
Result block: 1.51

Query block: Give its log10 INH value. Item: "CCOCCCCCOc1cccc(C(N)=O)c1"
Result block: 2.11

Query block: Give its log10 INH value. Item: "NC(=O)c1cccc(OCCCCOc2ccccc2)c1"
Result block: 2.71

Query block: Give its log10 INH value. Item: "CCCCOCCCCCOc1cccc(C(N)=O)c1"
Result block: 1.20

###

# Tested on: Staphylococcus aureus
# measurement notes: Antibacterial activity against penicillin-resistant Staphylococcus aureus clinical isolate after 24 hrs by broth microdilution method
# Assay type: functional
measured property: MIC (µg/mL)
A number alone suffices; assume µg/mL.

Query block: Give its MIC value. Item: "CCOCCCCCOc1cccc(C(N)=O)c1"
Result block: 64

Query block: Give its MIC value. Item: "CCCCOCCCCCOc1cccc(C(N)=O)c1"
Result block: 8

Query block: Give its MIC value. Item: "NC(=O)c1cccc(OCCCCl)c1"
Result block: 64

###

# System: Staphylococcus aureus
# measurement notes: Inhibition of cell division in penicillin-susceptible Staphylococcus aureus ATCC 25923 assessed as lowest concentration required to ballooning after 5 hrs by phase-contrast light microscopy analysis
# Format: functional
Lab note: cut-off is 500 µg/mL. Strictly less in INH is y. Exactly 500 µg/mL or more is n.

# smiles notation, qualitative label
records = [
    ("NC(=O)c1cccc(OCCSc2nc3ccccc3s2)c1", "n"),
]

Query block: Could you please tell me whether INH recorded for "NC(=O)c1cccc(OCCBr)c1" is less than 500 µg/mL?
Result block: y

Query block: Could you please tell me whether INH recorded for "NC(=O)c1cccc(OCCCCCBr)c1" is less than 500 µg/mL?
Result block: y

Query block: Could you please tell me whether INH recorded for "NC(=O)c1cccc(OCCCCCCl)c1" is less than 500 µg/mL?
Result block: y

###

# Tested on: Bacillus subtilis
# measurement notes: Inhibition of cell division in penicillin-susceptible Bacillus subtilis ATCC 9372 assessed as lowest concentration required to filamentation after 5 hrs by phase-contrast light microscopy analysis
# Format: functional
measured property: log10 of INH (log10 of the value in µg/mL)
Values are log10 of INH in µg/mL.

Query block: Lab note: need log10 of INH for "COc1ccc(OCCCOc2cccc(C(N)=O)c2)cc1" on Bacillus subtilis, anyone have it?
Result block: 3.01

Query block: Lab note: need log10 of INH for "NC(=O)c1cccc(OCCCCSc2nc3ccccc3s2)c1" on Bacillus subtilis, anyone have it?
Result block: 2.11

Query block: Lab note: need log10 of INH for "NC(=O)c1cccc(OCCCCOc2ccccc2)c1" on Bacillus subtilis, anyone have it?
Result block: 1.51

Query block: Lab note: need log10 of INH for "NC(=O)c1cccc(OCCBr)c1" on Bacillus subtilis, anyone have it?
Result block: 1.81

Query block: Lab note: need log10 of INH for "NC(=O)c1cccc(OCCCCl)c1" on Bacillus subtilis, anyone have it?
Result block: 1.81

Query block: Lab note: need log10 of INH for "COc1cccc(C(N)=O)c1" on Bacillus subtilis, anyone have it?
Result block: 2.71

Query block: Lab note: need log10 of INH for "NC(=O)c1cccc(OCCCCOc2ccc(Cl)cc2)c1" on Bacillus subtilis, anyone have it?
Result block: -0.60
